- TEST DESCRIPTION: In vivo pharmacokinetics of MMF after oral administration in NMRI mice
- COND: female, mouse, 65.3 mg/kg
READOUT KIND: AUC(0-inf) (ng·h/mL)
Numbers only, in ng·h/mL.

Supply reported AUC(0-inf) belonging to this molecule: COC(=O)/C=C/C(=O)OCCOCCOCCOCCOC(=O)/C=C/C(=O)OC
5990

---

- TEST DESCRIPTION: in vitro
- COND: human, Caco-2
READOUT KIND: recovery at 90 min, 250 µM (%)
Give bare numbers, in %.

Quickly give me recorded recovery at 90 min, 250 µM for COC(=O)/C=C/C(=O)OCCOCCOCCOCCOC(=O)/C=C/C(=O)OC
17.1
